B1: glmS ribozyme (parent)
chain: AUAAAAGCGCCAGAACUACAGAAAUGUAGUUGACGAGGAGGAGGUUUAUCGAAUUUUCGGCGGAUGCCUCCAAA

# Variants of: B1
# test_details: self-cleavage kobs at 40 uM GlcN6P; higher = faster cleavage; RNA array
# condition_summary: with glucosamine-6-phosphate
Fewer inactive variants are shown than the library holds.
observation_type: self-cleavage kobs at 40 uM GlcN6P

G38A C70A: < 1e-05 s⁻¹
G7U A33C: < 1e-05 s⁻¹
G35A A42G: < 1e-05 s⁻¹
G13U A15U G43C U57C C58G: < 1e-05 s⁻¹
C34A G40U G66A: < 1e-05 s⁻¹
G43U A48C: < 1e-05 s⁻¹
C16U U31A: 0.000621 s⁻¹
U55A C71U: 0.00109 s⁻¹
C11U A36C C61U: < 1e-05 s⁻¹
U30A G35A: < 1e-05 s⁻¹
A12U A39C U56G: 2.75e-05 s⁻¹
A42U G44A U65G: < 1e-05 s⁻¹
G13C G40U A53U G59U: < 1e-05 s⁻¹
G7U G44C: < 1e-05 s⁻¹
A15C G40A U49G C71U: < 1e-05 s⁻¹
C11G G38U: < 1e-05 s⁻¹
A12C A33C C71G: < 1e-05 s⁻¹
C10A G40U G41A C70A: < 1e-05 s⁻¹
G43A C50G: < 1e-05 s⁻¹
G51C C68A: < 1e-05 s⁻¹
A15G A39C C61U G63C C68G: < 1e-05 s⁻¹
C11A G40U G41U G60C U65C: < 1e-05 s⁻¹
G9U A15U G41A U55A G60A: < 1e-05 s⁻¹
C11A G35A U55A G60U U65A C68G: 0.00461 s⁻¹
A36U G41U C70G: < 1e-05 s⁻¹
C16G: 0.000174 s⁻¹
C10A U54G: < 1e-05 s⁻¹
G41U A42U C50G: < 1e-05 s⁻¹
C11A A48C U55C C61A: < 1e-05 s⁻¹
A52C G62C: < 1e-05 s⁻¹
